- EXPERIMENT: Bioavailability of intranasal melagatran in rats, with and without absorption enhancers
- Assay type: in vivo
- PROTOCOL_CONDITIONS: rat, plasma, inhaled or intranasal, 20 μmol/kg, formulations with enhancers SDS or EDTA, read-out: bioavailability with enhancers

{"columns": ["COMPOUND", "bioavailability"],
 "data": [
  ["N=C(N)c1ccc(CNC(=O)[C@@H]2CCN2C(=O)[C@H](NCC(=O)O)C2CCCCC2)cc1 [melagatran, HOOC—CH2—(R)-Cgl-Aze-Pab]", "≤ 19%"]
]}

---

- EXPERIMENT: Rate and extent of absorption after intranasal administration to healthy male subjects
- Format: in vivo, human
- PROTOCOL_CONDITIONS: male, human, plasma, inhaled or intranasal, 10 mg, healthy male humans, intranasal, single dose 10 mg, six subjects; read-out: median bioavailability

{"columns": ["COMPOUND", "bioavailability (%)"],
 "data": [
  ["N=C(N)c1ccc(CNC(=O)[C@@H]2CCN2C(=O)[C@H](NCC(=O)O)C2CCCCC2)cc1 [melagatran, HOOC—CH2—(R)-Cgl-Aze-Pab]", 12]
]}

---

- EXPERIMENT: Rate and extent of absorption after intranasal administration to healthy male subjects
- Format: in vivo, human
- PROTOCOL_CONDITIONS: male, human, plasma, inhaled or intranasal, 20 mg, healthy male humans, intranasal, 5, 10 and 20 mg; read-out: bioavailability, range over the six subjects at the three doses
- Protocol: The rate and extent of absorption of melagatran as well as the safety and tolerability were investigated after intranasal administration to six healthy male subjects (between 20 and 40 years of age, body weight between 66 and 86 kg). The trial comprised three study days, separated by wash-out periods of 6-28 days. On study day 1, a single dose of 5 mg of melagatran was administered. The following two study days 10 mg and 20 mg, respectively, were administered. […]
RECORDED_METRIC: bioavailability

{"columns": ["COMPOUND", "RECORDED_METRIC", "RESULT"],
 "data": [
  ["N=C(N)c1ccc(CNC(=O)[C@@H]2CCN2C(=O)[C@H](NCC(=O)O)C2CCCCC2)cc1 [melagatran, HOOC—CH2—(R)-Cgl-Aze-Pab]", "bioavailability", "7 to 45%"]
]}

---

- EXPERIMENT: Bioavailability of intranasal melagatran in rats, with and without absorption enhancers
- Type: in vivo
- PROTOCOL_CONDITIONS: rat, inhaled or intranasal, 20 umol/kg, melagatran alone (no enhancer), blood plasma samples, read-out: bioavailability
RECORDED_METRIC: bioavailability

{"columns": ["MOLECULE", "RESULT"],
 "data": [
  ["N=C(N)c1ccc(CNC(=O)[C@@H]2CCN2C(=O)[C@H](NCC(=O)O)C2CCCCC2)cc1 [melagatran, HOOC—CH2—(R)-Cgl-Aze-Pab]", "~10%"]
]}
